The measured values listed here are drawn from the supplement of paper PMC6555819.

Tested on: PPARa:RXRa (NR concentration 270 nM, RXRa partner concentration 90 nM)
Assay: PBM binding z-score (relative to random genomic background probes); higher = stronger binding; sequences stand for … in GC…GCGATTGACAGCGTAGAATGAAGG
Assign class by PBM binding z-score: not lower than 1 means yes; lower than 1 means no.

chain	class.label
TCTGCTAGGTCAACGATGGTGAGCTAATCTGCTA	yes
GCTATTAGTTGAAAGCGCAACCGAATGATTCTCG	no
CATACAGGGTCAGCTAGGCCGGAGTAGGGACGGC	yes
ATACCAAGGTGATGGTGAGGTCGTTGATACTAAC	yes
CGTCCAAGGTCAATGCTAGGTCAGTTAAAGCATT	yes
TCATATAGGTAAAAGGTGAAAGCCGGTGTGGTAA	yes
CAAACTAGGTCATAGGTCAAAGTCGAGCCAACCA	yes
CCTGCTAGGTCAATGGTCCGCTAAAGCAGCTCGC	yes
GATACAGGATCAAGGCCAGAGTACGCGTATTGAT	no
TCTATTAGTTGAATGGCAACCGACGAGTCCGTTT	no
TTTATTAGTTGAAGGGCAACCGACGAGTCCGTTT	no
GCAGACCGGTGAAACGCAGGTAACTCAGGGTGGC	no
GCGACTGGGGCAAAGCAGGTTACCAGAAGGTTGG	yes

----------
System: PXR:RXRa (NR concentration 270 nM, RXRa partner concentration 90 nM)
Assay: PBM binding z-score (relative to random genomic background probes); higher = stronger binding; sequences stand for … in GC…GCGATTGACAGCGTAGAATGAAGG
Assign class by PBM binding z-score: not lower than 0.8 means 1.0; lower than 0.8 means 0.0.

chain	class.label
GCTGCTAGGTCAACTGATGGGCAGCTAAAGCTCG	1.0
CCGAGTAGGTTATGGGGCATTTAGGCAACGGTGA	0.0
GCTAGCAGGCCATTTGGGTCAGTCAATGACGGGC	0.0
AATCAAAGTTCAGGACGAGGTAACGTAAAGCACG	1.0
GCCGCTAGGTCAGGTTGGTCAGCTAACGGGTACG	0.0
TCTTGTAGATCAATAGACGTTAAGAAAGTGCGCT	0.0
ACTAGCAGGCCAAGTTTGGGTCACTAAAACAAAG	0.0
ACTACAGGGTCACTAGGCCAGAGTAGGTACGAAT	1.0
CCAGACAGGTGAAAGGTAACTCATTCTGGTACGC	1.0
TCAAGTTGGTCAAAGGTCACACACTCGAAATGCG	1.0
TCATATAGGTAAACAGGCGAAAGTCCGTAAGTTA	0.0
CGTCAAAGTTCAACTAAGGTAACGTGAAGCACGC	1.0
CAGACTAGGTCACGAAAGGTCAAAGTCGAATGAC	1.0
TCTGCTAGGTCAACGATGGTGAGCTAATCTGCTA	0.0
TCTGCTAGGTCAACGATGGTCAGCTATTCTGCTA	1.0
TCTAGTTGGTCACGGAGGTCACACATGACGGGTA	1.0

----------
Tested on: RARg:RXRa (NR concentration 270 nM, RXRa partner concentration 90 nM)
Assay: PBM binding z-score (relative to random genomic background probes); higher = stronger binding; sequences stand for … in GC…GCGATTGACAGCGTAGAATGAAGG
measured.property: PBM binding z-score

chain	measured.property	number
GCTCGGAGGACAAGGTAAGAGCTTTGTCCGTAGA	PBM binding z-score	-0.119
ATATGTAGGTTATCGGGGCATTCAGTTTGCGCAT	PBM binding z-score	1.3
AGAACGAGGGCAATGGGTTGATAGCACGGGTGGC	PBM binding z-score	1.47
ACTAGCAGGCAAAGGGTCACTCAAGATTAGTCCG	PBM binding z-score	3.98
CGTCCAAGGTCAGAGTGGTCAGTGAATGCCGAGT	PBM binding z-score	4.78
TGAATGAGGTTATAATATCAGGGAACGTTGCAAA	PBM binding z-score	1.56
TCATATAGGTACAAGGTGAAAGTCGGTGTGGTAA	PBM binding z-score	0.762
GCTATTAGTTGAAAAGGCAACCGAATGATTCTCG	PBM binding z-score	0.0252
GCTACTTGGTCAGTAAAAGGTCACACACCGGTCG	PBM binding z-score	5.37
CGTCCAAGGTCAGCAGGTCATTGAAAGCGACGTG	PBM binding z-score	6.83
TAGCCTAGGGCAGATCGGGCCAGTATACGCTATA	PBM binding z-score	0.171
TGTAAAAGTTCAAAGGTAACGTAAGTATCCACAC	PBM binding z-score	5.35
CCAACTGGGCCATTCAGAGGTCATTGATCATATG	PBM binding z-score	4.28
CAAATTAGGTCACAGAGGTCAAAGTCCGTGCGTA	PBM binding z-score	7.24
CCTTACGGGTCACTGACTGGTTATAGCATTTGGA	PBM binding z-score	5.04
TTACCACGGTGAAGGTCGTTGATCCCTCTGTAGA	PBM binding z-score	0.459
CGAACTAGGTCAGAACAGGCCAGTGAAGGATGAT	PBM binding z-score	2.58
TCTTGTAGAACAAAGGTTAAGAAAGCCGAAGCCT	PBM binding z-score	1.55
CGTAGCAGGCCAGGGTCACTCAAGCATTTCGCTT	PBM binding z-score	3.02
CAGCCTCGGTCAGGGCCAGTATAGGAGGAACGTT	PBM binding z-score	0.85
TATCCTAGGTCATTCAGGGGCCAGTATAGAAAGC	PBM binding z-score	6.44
